Assay: Henry solubility constant Hcp at 298.15 K (mol/(m3 Pa))
Conditions: reference: Dewulf et al. (1999)
Class criterion met: Henry solubility constant Hcp at least 0.003. Class criterion not met: Henry solubility constant Hcp below 0.003.

Please review the entries below; each comes with its answer.
>  <COMPOUND>
Clc1cccc(Cl)c1Cl [1,2,3-trichlorobenzene]

>  <ANSWER LABEL>
criterion met

$$$$
>  <COMPOUND>
ClCC(Cl)Cl [1,1,2-trichloroethane]

>  <ANSWER LABEL>
criterion met

$$$$
>  <COMPOUND>
O=[N+]([O-])c1ccccc1 [nitrobenzene]

>  <ANSWER LABEL>
criterion met

$$$$
>  <COMPOUND>
ClC=C(Cl)Cl [trichloroethene]

>  <ANSWER LABEL>
criterion not met

$$$$
>  <COMPOUND>
C=C(Cl)Cl [1,1-dichloroethene]

>  <ANSWER LABEL>
criterion not met

$$$$

Let's switch to this compound now.
Request: Does CC(Cl)CCl (centres undefined) [1,2-dichloropropane] have a reported Henry solubility constant Hcp of at least 0.003?
Response: criterion met

====

Experiment: Henry solubility constant Hcp at 298.15 K (mol/(m3 Pa))
Conditions: reference: Dewulf et al. (1999)
Class class 1: Henry solubility constant Hcp at least 0.001. Class class 0: Henry solubility constant Hcp below 0.001.

Please review the entries below; each comes with its answer.
>  <MOLECULE>
ClC(Cl)=C(Cl)C(Cl)=C(Cl)Cl [hexachlorobutadiene]

>  <ANSWER LABEL>
class 0

$$$$
>  <MOLECULE>
COc1ccccc1 [methoxybenzene]

>  <ANSWER LABEL>
class 1

$$$$
>  <MOLECULE>
Clc1cc(Cl)cc(Cl)c1 [1,3,5-trichlorobenzene]

>  <ANSWER LABEL>
class 1

$$$$
>  <MOLECULE>
Cc1ccccc1 [methylbenzene]

>  <ANSWER LABEL>
class 1

$$$$

Request: Does C1CCCCC1 [cyclohexane] have a reported Henry solubility constant Hcp of at least 0.001?
Response: class 0

Request: Does Clc1ccccc1 [chlorobenzene] have a reported Henry solubility constant Hcp of at least 0.001?
Response: class 1

Request: Does c1ccc2ccccc2c1 [naphthalene] have a reported Henry solubility constant Hcp of at least 0.001?
Response: class 1

Request: Does Fc1ccccc1 [fluorobenzene] have a reported Henry solubility constant Hcp of at least 0.001?
Response: class 1
